# credit: PubChem BioAssay

METHOD NOTES: 384-well plate pilot, post-Golgi transport modulator project, inhibition of yeast transport mutant growth (AID 636)
PROTOCOL CONDITIONS: absorbance 615 nm, about 18 h, stronger effect = higher value
QUANTITY KIND: inhibition (%)

MOLECULE	NUMERIC RESULT
Cc1cccnc1NC(=O)CCCN1C(=O)c2ccccc2C1=O	-6.13
O=C1C(CCS(=O)c2ccccc2)C(=O)N(c2ccccc2)N1c1ccccc1 (stereo not drawn)	0.65
CCOCCCN(Cc1cc2cc(C)cc(C)c2[nH]c1=O)C(=O)N(CC)CC	0.93

###

As shown below, each of these molecules has a reported viability value.
METHOD NOTES: growth inhibitors of H69AR lung tumor, primary screen, human, duplicate replicates (AID 580);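 further: 100% = mean luminescence of untreated wells and 0% = no signal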
PROTOCOL CONDITIONS: H69AR lung tumor cells viability, ATP luminescence, 72 h; at 10 µM; stronger effect = lower value
QUANTITY KIND: viability (%)

STRUCTURE SMILES	NUMERIC RESULT
CCOC(=O)c1c(N)nn(C(=O)C(C)C)c1-c1ccccc1	109
O=S(=O)(c1ccc2c(c1)OCCO2)N1CCN(Cc2ccc3c(c2)OCO3)CC1	88.4
CC1=C(/C=C/C(C)=C/C=C/C(C)=C/C(=O)O)C(C)(C)CCC1	104

###

METHOD NOTES: HUVEC growth inhibition – cell-based, human, primary screen (AID 575);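 further: 100% = median of untreated cell wells with 0.1% DMSO on each plate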
PROTOCOL CONDITIONS: HUVEC proliferation, CellTiter-Glo luminescence, 72 h; at 10 µM; stronger effect = lower value
QUANTITY KIND: viability (%)

COMPOUND	QUANTITY KIND	NUMERIC RESULT
COC(=O)c1[nH]c2ccc(C)cc2c1NC(=O)CN1CCCC(C)(C)C1	viability	77.6
O=C(c1cc2nc(-c3ccco3)cc(C(F)(F)F)n2n1)N1CCN(c2ccccn2)CC1	viability	66.5
CCOC(=O)N1CCN(C(=O)COc2cc(=O)n(C)c3ccccc23)CC1	viability	98.2
O=C(Nc1nnc(CCN2CCCCC2)s1)C1CCCCC1	viability	93.4
Cc1noc(C)c1CSc1nnc2scc(-c3ccc(Cl)cc3)n12	viability	113
O=C1OCCC1Sc1ncnc2sccc12 (stereo not drawn)	viability	107
CCCS(=O)(=O)N1CCCC(C(=O)NC2CCCC(C)C2C)C1 (stereo not drawn)	viability	113
CC1=C(C(=O)OC(C)C)C(C2CC=CCC2)NC(=O)N1 (stereo not drawn)	viability	98.5
CC(=O)Nc1sc2c(c1C#N)CCCCC2	viability	82.2
O=C(NCC1CCCO1)c1cccc(N2C(=O)C3C4C=CC(C4)C3C2=O)c1 (stereo not drawn)	viability	98.4
COc1ccc(-c2nc3cc(NC(=O)Cc4ccc(OC)c(OC)c4)ccc3o2)cc1	viability	54.8
CCOC(=O)N1CCN(CC(=O)Nc2cc(C)nn2-c2nc3ccccc3s2)CC1	viability	57
O=C(O)c1ccc(C2SCC(=O)N2Cc2ccccc2)cc1 (stereo not drawn)	viability	109
CCC(c1nnc(SCC(=O)Nc2ccc(C(=O)Nc3ccccc3OC)cc2)o1)N(C)C (stereo not drawn)	viability	96.7
CC(=O)N(CCc1ccccc1C)Cc1cc2cc3c(cc2[nH]c1=O)OCO3	viability	90.1
CC(C)OC(=O)CSc1nnc(-c2ccc(O)cc2)n1Cc1ccccc1	viability	109
C=CCN1C(=O)/C(=C2/Sc3ccccc3N2C)SC1=Nc1c(C)n[nH]c1C	viability	85
COc1ccccc1-n1cnc2cc(NS(=O)(=O)c3ccccc3)ccc21	viability	101

###

METHOD NOTES: reversal of MRP1-mediated doxorubicin resistance, pilot screen, H69AR cells, doxorubicin co-treatment (AID 601)
PROTOCOL CONDITIONS: H69AR cells, CellTiter-Glo, 72 h; compound alone cytotoxicity; at 10 µM
QUANTITY KIND: viability (%)

MOLECULE	UNITS LABEL	NUMERIC RESULT
CN(C)c1ccc(NC(=O)Nc2cccc(Cl)c2)cc1	%	88.7
COc1ccccc1NC(=O)C(C)NS(=O)(=O)c1ccc(F)cc1 (stereo not given)	%	89.2
CC12C(=O)N(CCC(=O)O)C(=O)C1C1C=CC2C1 (stereo not given)	%	89.6
O=C(c1cccnc1)N1CCN(Cc2ccc3c(c2)OCO3)CC1	%	95.8
COc1cccc(N(C(=O)c2ccco2)C(C(=O)NC2CCCC2)c2ccc(N(C)C)cc2)c1 (stereo not given)	%	91.8
Cc1ccc(Nc2nc(N)nc(CN3CCN(Cc4ccc5c(c4)OCO5)CC3)n2)cc1	%	82.2
CCSCc1nnc(SCC(=O)Nc2cccc(SC)c2)n1C	%	90.3
O=C(CCNC(=O)c1ccc(Br)o1)NC1CCCC1	%	95.1
CCOC(=O)N1CCC(NC(=O)Cc2ccc(-n3c(=O)[nH]c4ccccc4c3=O)cc2)CC1	%	96.4
O=C(CN(Cc1ccco1)C(=O)c1cc(=O)[nH]c2ccccc12)Nc1ccccc1Br	%	83.1

###

Catalogue of molecules with associated viability
METHOD NOTES: HUVEC growth inhibition – cell-based, human, primary screen (AID 575);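 further: 100% = median of untreated cell wells with 0.1% DMSO on each plate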
PROTOCOL CONDITIONS: HUVEC proliferation, CellTiter-Glo luminescence, 72 h; at 10 µM; stronger effect = lower value
Active and inactive are the calls of the source.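 The calls were made as follows: active = viability at or below 30% in both replicate assays; inconclusive = viability at or below 30% in just one of the two assays; inactive = the rest.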

MOLECULE	viability
O=C(Nc1ccc(F)cc1)NC1CCN(Cc2nnnn2Cc2ccco2)CC1	70.5% (inactive)
CCOC(=O)N1CCC(NC(=O)CCC(=O)N2CC(C)Oc3ccc(Cl)cc32)CC1 (stereo not drawn)	94.6% (inactive)
Brc1ccc(C2=Nn3c(nnc3-c3ccncc3)SC2)cc1	82.8% (inactive)

###

TARGET OR SYSTEM: Receptor tyrosine-protein kinase erbB-2 (Homo sapiens)
METHOD NOTES: reducers of endogenous Her2 protein level, primary screen, SKBR3 breast tumor cells, AlphaScreen, ATP viability (AID 461);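 further: lower value means less Her2 protein in the cells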
PROTOCOL CONDITIONS: 18-24 h, at 10 µM
Active and inactive are the calls of the source.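 The calls were made as follows: active = Her2 level under about 52% in both replicate screens, with viability over 70% of control (limit read from the data); inconclusive = Her2 under the limit in one screen only, or viability under 70%; inactive = Her2 level above the set limit.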
Labels: active, inactive

COMPOUND	TARGET OR SYSTEM	CATEGORY
COc1ccc(N2C(=O)C3C4C=CC(C4)C3C2=O)nn1 (stereo not drawn)	Receptor tyrosine-protein kinase erbB-2 (Homo sapiens)	inactive
Nc1nonc1C(=O)NCCNCc1cc(Br)ccc1OCc1ccccc1F	Receptor tyrosine-protein kinase erbB-2 (Homo sapiens)	inactive
COc1ccccc1CC(NC(C)=O)C(=O)NC1CCN(c2nnnn2-c2ccccc2)CC1 (stereo not drawn)	Receptor tyrosine-protein kinase erbB-2 (Homo sapiens)	inactive
O=S(=O)(c1ccc(OCC(O)CN2CCc3ccccc3C2)cc1)N1CCOCC1 (stereo not drawn)	Receptor tyrosine-protein kinase erbB-2 (Homo sapiens)	inactive
COC1CCCCC1NS(=O)(=O)c1ccccc1 (stereo not drawn)	Receptor tyrosine-protein kinase erbB-2 (Homo sapiens)	inactive
CCOC(=O)Cc1csc(NC(=O)CSc2nnc(-c3ccncc3)n2Cc2ccco2)n1	Receptor tyrosine-protein kinase erbB-2 (Homo sapiens)	inactive
Cc1cccc(OCC(=O)N2CCC(c3ccccc3)C2)c1 (stereo not drawn)	Receptor tyrosine-protein kinase erbB-2 (Homo sapiens)	inactive
O=C(CSc1nnnn1C1CCCC1)N1CCN(C(=O)c2ccco2)CC1	Receptor tyrosine-protein kinase erbB-2 (Homo sapiens)	inactive
CCN(C(=O)CN1CCN(c2ccccc2OC)CC1)c1c(N)n(Cc2ccccc2)c(=O)[nH]c1=O	Receptor tyrosine-protein kinase erbB-2 (Homo sapiens)	inactive
Cc1cc(C)n(C(=O)CCCCCC(=O)n2nc(C)cc2C)n1	Receptor tyrosine-protein kinase erbB-2 (Homo sapiens)	inactive
COc1cc(C2c3c(n[nH]c3C)C(=O)N2c2ccc(C)cc2)ccc1O (stereo not drawn)	Receptor tyrosine-protein kinase erbB-2 (Homo sapiens)	inactive
COc1ccc(CC(=O)Nc2ccc(OC)c(NC(=O)c3ccco3)c2)cc1	Receptor tyrosine-protein kinase erbB-2 (Homo sapiens)	inactive
COC(=O)c1oc2ccc(OC)cc2c1N	Receptor tyrosine-protein kinase erbB-2 (Homo sapiens)	inactive
O=C(CSc1nc2ccccc2nc1SCC(=O)N1CCOCC1)N1CCOCC1	Receptor tyrosine-protein kinase erbB-2 (Homo sapiens)	inactive
Cc1cccc(-n2ncc3c(N)ncnc32)c1	Receptor tyrosine-protein kinase erbB-2 (Homo sapiens)	inactive
CCOC(=O)c1sc(NC(=O)CSc2n[nH]c(-c3ccccc3)n2)c(C#N)c1C	Receptor tyrosine-protein kinase erbB-2 (Homo sapiens)	inactive
Cc1sc2nc(SCC(=O)Nc3c(C)n(C)n(-c4ccccc4)c3=O)n(C)c(=O)c2c1C	Receptor tyrosine-protein kinase erbB-2 (Homo sapiens)	inactive
O=C1c2ccccc2C(=O)N1CCCn1nnc(-c2ccc(N3CCOCC3)cc2)n1	Receptor tyrosine-protein kinase erbB-2 (Homo sapiens)	inactive
CCOC(=O)N1CCN(c2cc3[nH]c(=S)[nH]c3cc2F)CC1	Receptor tyrosine-protein kinase erbB-2 (Homo sapiens)	inactive
CSc1nc(N2CCOCC2)c2c(c1C#N)CCCCC2	Receptor tyrosine-protein kinase erbB-2 (Homo sapiens)	inactive
COc1ccccc1C(=O)Nc1ccc(N2CCN(Cc3ccccc3)CC2)cc1	Receptor tyrosine-protein kinase erbB-2 (Homo sapiens)	inactive
CN(C)c1cccc(NC(=O)CCc2ccccc2)c1	Receptor tyrosine-protein kinase erbB-2 (Homo sapiens)	inactive
Cn1c(=O)c2c(nc(NCC3CCCO3)n2C)n(C)c1=O (stereo not drawn)	Receptor tyrosine-protein kinase erbB-2 (Homo sapiens)	inactive
COc1ccc(NC(=O)CCNC(=O)Cn2ccc3ccccc3c2=O)c(OC)c1	Receptor tyrosine-protein kinase erbB-2 (Homo sapiens)	inactive
COc1ccccc1C(O)P(=O)(OC(C)C)c1ccc(N(C)C)cc1 (stereo not drawn)	Receptor tyrosine-protein kinase erbB-2 (Homo sapiens)	inactive
CC(=O)N1CCc2cc(S(=O)(=O)CCC(=O)Nc3cccc(F)c3)ccc21	Receptor tyrosine-protein kinase erbB-2 (Homo sapiens)	inactive
O=C(COc1ccccc1)N1CCN(c2ncnc3c2cnn3-c2ccccc2)CC1	Receptor tyrosine-protein kinase erbB-2 (Homo sapiens)	inactive
COc1ccc(CN(C(=O)c2ccccc2OC)C2CCS(=O)(=O)C2)cc1 (stereo not drawn)	Receptor tyrosine-protein kinase erbB-2 (Homo sapiens)	inactive
CC1=C(C(=O)OC2CCCCC2)C(c2ccc(C)o2)C2=C(CC(C)(C)CC2=O)N1 (stereo not drawn)	Receptor tyrosine-protein kinase erbB-2 (Homo sapiens)	inactive
COc1ccc(S(=O)(=O)NCc2ccc(C(=O)O)cc2)cc1	Receptor tyrosine-protein kinase erbB-2 (Homo sapiens)	inactive
CCOC(=O)N1CCN(Cc2nc3c(c(=O)[nH]c(=O)n3C)n2Cc2cc(C)ccc2C)CC1	Receptor tyrosine-protein kinase erbB-2 (Homo sapiens)	inactive
COC(=O)C1=CN(C)C=C(C(=O)OC)C1c1ccc(O)c(OC)c1	Receptor tyrosine-protein kinase erbB-2 (Homo sapiens)	inactive
COc1ccccc1-c1nnc(SCC(=O)N2CC(C)CC(C)C2)o1 (stereo not drawn)	Receptor tyrosine-protein kinase erbB-2 (Homo sapiens)	inactive
COc1ccc(Cc2nc(-c3ccc(Br)cc3)no2)cc1	Receptor tyrosine-protein kinase erbB-2 (Homo sapiens)	inactive
Cc1ccc(N(Cc2ccco2)C(=O)c2cccc(S(=O)(=O)N(C)C)c2)cc1	Receptor tyrosine-protein kinase erbB-2 (Homo sapiens)	inactive
COCCOC(=O)c1cc(C(=O)c2cc(F)ccc2O)coc1=N	Receptor tyrosine-protein kinase erbB-2 (Homo sapiens)	inactive
N#CC1=C(N)n2c(s/c(=C\c3ccco3)c2=O)=C(C#N)C1c1ccco1 (stereo not drawn)	Receptor tyrosine-protein kinase erbB-2 (Homo sapiens)	active
COc1cccc(-n2c(C)nc3c(cnn3-c3ccc(Cl)cc3)c2=O)c1	Receptor tyrosine-protein kinase erbB-2 (Homo sapiens)	inactive
